Biological target: human activated C1s complement component (Homo sapiens (Human), UniProt P09871)
Sequence (P09871 438-688): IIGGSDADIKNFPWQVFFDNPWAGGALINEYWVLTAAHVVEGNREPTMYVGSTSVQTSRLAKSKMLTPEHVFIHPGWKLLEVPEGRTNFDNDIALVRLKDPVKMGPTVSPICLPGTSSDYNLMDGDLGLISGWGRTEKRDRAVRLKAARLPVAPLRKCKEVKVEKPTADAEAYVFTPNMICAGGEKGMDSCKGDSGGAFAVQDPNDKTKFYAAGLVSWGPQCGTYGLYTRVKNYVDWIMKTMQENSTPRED
Sequence (P09871 16-437 partner): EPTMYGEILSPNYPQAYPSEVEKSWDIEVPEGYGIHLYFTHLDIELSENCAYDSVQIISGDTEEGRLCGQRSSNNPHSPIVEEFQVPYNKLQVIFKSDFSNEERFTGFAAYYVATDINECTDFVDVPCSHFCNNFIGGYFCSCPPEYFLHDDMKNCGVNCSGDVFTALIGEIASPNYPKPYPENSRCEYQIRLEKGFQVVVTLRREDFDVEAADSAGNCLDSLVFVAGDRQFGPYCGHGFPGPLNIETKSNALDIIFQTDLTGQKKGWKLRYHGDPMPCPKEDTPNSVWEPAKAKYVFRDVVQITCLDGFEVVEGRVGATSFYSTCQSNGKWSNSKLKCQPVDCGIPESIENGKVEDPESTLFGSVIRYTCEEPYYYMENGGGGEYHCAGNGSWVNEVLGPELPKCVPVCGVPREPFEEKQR
Test: Inhibition of human C1s
Format: biochemical
Conditions: S2314 substrate; read-out: h C1s Ki
endpoint: Ki (µM)
// units = µM; emit number, no label

Tell me the measured Ki of N=C(N)c1ccc(CNC(=O)[C@H](CCC2CCNCC2)NC(=O)[C@@H](CCCC2CCNCC2)NS(=O)(=O)Cc2ccccc2)cc1 , please.
8

Tell me the measured Ki of N=C(N)c1ccc(CNC(=O)[C@H](CCC2CCNCC2)NC(=O)[C@@H](CCCc2cc[n+]([O-])cc2)NS(=O)(=O)Cc2ccccc2)cc1 [drawing 117] , please.
10

Tell me the measured Ki of N=C(N)c1ccc(CNC(=O)[C@H](CCC2CCNCC2)NC(=O)[C@@H](CCCc2ccccc2)NS(=O)(=O)Cc2cccc(C(=O)O)c2)cc1 , please.
1.2

----------
Entries below carry reported pKi on UniProt P06870.
Sequence (P06870 25-262): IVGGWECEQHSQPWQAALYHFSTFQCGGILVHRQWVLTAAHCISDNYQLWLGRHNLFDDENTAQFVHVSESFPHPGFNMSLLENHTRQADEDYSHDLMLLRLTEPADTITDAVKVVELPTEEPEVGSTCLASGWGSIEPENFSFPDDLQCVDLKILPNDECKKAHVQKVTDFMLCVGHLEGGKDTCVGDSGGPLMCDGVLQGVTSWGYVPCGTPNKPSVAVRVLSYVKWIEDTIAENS
pKi: −log10 of the molar value.

Tell me the measured pKi of N=C(N)c1ccc(CNC(=O)[C@H](CCC2CCNCC2)NC(=O)[C@@H](CCCc2ccncc2)NS(=O)(=O)Cc2ccccc2)cc1 , please.
< 4.10

Tell me the measured pKi of CNC(=O)N1CCC(CC[C@@H](NS(=O)(=O)Cc2ccccc2)C(=O)N[C@@H](CCC2CCNCC2)C(=O)NCc2ccc(C(=N)N)cc2)CC1 , please.
< 3.70

Tell me the measured pKi of CCCC(=O)N1CCC(CC[C@@H](NS(=O)(=O)Cc2ccccc2)C(=O)N[C@@H](CCC2CCNCC2)C(=O)NCc2ccc(C(=N)N)cc2)CC1 , please.
< 3.70

Tell me the measured pKi of COC(=O)N1CCC(CC[C@@H](NS(=O)(=O)Cc2ccccc2)C(=O)N[C@@H](CCC2CCNCC2)C(=O)NCc2ccc(C(=N)N)cc2)CC1 , please.
< 3.70

Tell me the measured pKi of N=C(N)c1ccc(CNC(=O)[C@H](CCC2CCNCC2)NC(=O)[C@@H](CCCc2ccccc2)NS(=O)(=O)Cc2cccc(C(=O)O)c2)cc1 , please.
< 4.70

Tell me the measured pKi of N=C(N)c1ccc(CNC(=O)[C@H](CCC2CCNCC2)NC(=O)[C@@H](CCCc2cc[n+]([O-])cc2)NS(=O)(=O)Cc2ccccc2)cc1 [drawing 123] , please.
< 3.70

----------
Exercise: state measured pKi for each of the compounds provided.
Target: human activated C1s complement component (Homo sapiens (Human))
Assay: Inhibition of human C1s
Settings: S2314 substrate; read-out: h C1s Ki
As a rule, pKi stands for the negative log10 of the concentration, concentration in M.

Tell me the measured pKi of COC(=O)N1CCC(CCC[C@@H](NS(=O)(=O)Cc2ccccc2)C(=O)N[C@@H](CCC2CCNCC2)C(=O)NCc2ccc(C(=N)N)cc2)CC1 , please.
5.19

Tell me the measured pKi of N=C(N)c1ccc(CNC(=O)[C@H](CCC2CCNCC2)NC(=O)[C@@H](CCC2CCN(C(=O)C3CC3)CC2)NS(=O)(=O)Cc2ccccc2)cc1 , please.
4.72

Tell me the measured pKi of N=C(N)c1ccc(CNC(=O)[C@H](CCC2CCNCC2)NC(=O)[C@@H](CCCc2ccncc2)NS(=O)(=O)Cc2ccccc2)cc1 , please.
5.31

Tell me the measured pKi of N=C(N)c1ccc(CNC(=O)[C@H](CCC2CCNCC2)NC(=O)[C@@H](CCc2ccncc2)NS(=O)(=O)Cc2ccccc2)cc1 , please.
5.70

Tell me the measured pKi of N=C(N)c1ccc(CNC(=O)[C@H](CCC2CCNCC2)NC(=O)[C@@H](CCc2cc[n+]([O-])cc2)NS(=O)(=O)Cc2ccccc2)cc1 , please.
5.38

----------
Entries below carry reported pKi on human Factor Xa (Homo sapiens (Human)).
Sequence (P00742 235-488): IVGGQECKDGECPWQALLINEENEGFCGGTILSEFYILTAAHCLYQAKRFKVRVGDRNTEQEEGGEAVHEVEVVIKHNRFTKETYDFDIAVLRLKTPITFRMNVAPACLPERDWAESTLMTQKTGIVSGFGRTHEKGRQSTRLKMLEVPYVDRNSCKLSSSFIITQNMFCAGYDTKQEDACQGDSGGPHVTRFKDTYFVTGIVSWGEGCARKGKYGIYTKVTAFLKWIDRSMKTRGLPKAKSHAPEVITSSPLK
Sequence (P00742 41-179 partner): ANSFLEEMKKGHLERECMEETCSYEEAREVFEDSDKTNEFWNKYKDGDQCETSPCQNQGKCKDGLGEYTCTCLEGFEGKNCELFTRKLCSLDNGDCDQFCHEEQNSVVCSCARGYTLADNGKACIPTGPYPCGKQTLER
As a rule, pKi stands for the negative log10 of the concentration, concentration in M.

Tell me the measured pKi of N=C(N)c1ccc(CNC(=O)[C@H](CCC2CCNCC2)NC(=O)[C@@H](CCCc2cc[n+]([O-])cc2)NS(=O)(=O)Cc2ccccc2)cc1 [drawing 123] , please.
6.40

Tell me the measured pKi of COC(=O)N1CCC(CCC[C@@H](NS(=O)(=O)Cc2ccccc2)C(=O)N[C@@H](CCC2CCNCC2)C(=O)NCc2ccc(C(=N)N)cc2)CC1 , please.
6.40

Tell me the measured pKi of CNC(=O)N1CCC(CC[C@@H](NS(=O)(=O)Cc2ccccc2)C(=O)N[C@@H](CCC2CCNCC2)C(=O)NCc2ccc(C(=N)N)cc2)CC1 , please.
5.77

----------
Entries below carry reported pKi on human t-PA (Homo sapiens (Human), UniProt P00750).
Sequence (P00750 36-562): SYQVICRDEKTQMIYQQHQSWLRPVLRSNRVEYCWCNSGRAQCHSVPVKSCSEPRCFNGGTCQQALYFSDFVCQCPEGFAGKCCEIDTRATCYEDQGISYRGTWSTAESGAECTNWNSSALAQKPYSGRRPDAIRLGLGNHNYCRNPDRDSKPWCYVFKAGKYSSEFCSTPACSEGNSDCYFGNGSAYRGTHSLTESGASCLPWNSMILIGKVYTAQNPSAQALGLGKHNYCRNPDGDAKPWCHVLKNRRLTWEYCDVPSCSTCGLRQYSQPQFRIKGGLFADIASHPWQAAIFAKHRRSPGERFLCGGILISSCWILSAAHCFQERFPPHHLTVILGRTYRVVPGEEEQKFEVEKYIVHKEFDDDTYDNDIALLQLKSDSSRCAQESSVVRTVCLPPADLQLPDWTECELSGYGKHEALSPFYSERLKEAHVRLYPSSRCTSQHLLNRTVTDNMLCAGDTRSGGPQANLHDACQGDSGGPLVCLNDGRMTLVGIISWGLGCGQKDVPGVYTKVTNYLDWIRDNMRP
As a rule, pKi stands for the negative log10 of the concentration, concentration in M.

Tell me the measured pKi of CN(C)C(=O)N1CCC(CC[C@@H](NS(=O)(=O)Cc2ccccc2)C(=O)N[C@@H](CCC2CCNCC2)C(=O)NCc2ccc(C(=N)N)cc2)CC1 , please.
5.08

Tell me the measured pKi of CC(=O)N1CCC(CCC[C@@H](NS(=O)(=O)Cc2ccccc2)C(=O)N[C@@H](CCC2CCNCC2)C(=O)NCc2ccc(C(=N)N)cc2)CC1 , please.
5.52

Tell me the measured pKi of COC(=O)N1CCC(CC[C@@H](NS(=O)(=O)Cc2ccccc2)C(=O)N[C@@H](CCC2CCNCC2)C(=O)NCc2ccc(C(=N)N)cc2)CC1 , please.
5.18

Tell me the measured pKi of CCCC(=O)N1CCC(CC[C@@H](NS(=O)(=O)Cc2ccccc2)C(=O)N[C@@H](CCC2CCNCC2)C(=O)NCc2ccc(C(=N)N)cc2)CC1 , please.
5.21

Tell me the measured pKi of N=C(N)c1ccc(CNC(=O)[C@H](CCC2CCNCC2)NC(=O)[C@@H](CCCc2cc[n+]([O-])cc2)NS(=O)(=O)Cc2ccccc2)cc1 [drawing 117] , please.
5.62

Tell me the measured pKi of N=C(N)c1ccc(CNC(=O)[C@H](CCC2CCNCC2)NC(=O)[C@@H](CCCc2cc[n+]([O-])cc2)NS(=O)(=O)Cc2ccccc2)cc1 [drawing 123] , please.
5.62

Tell me the measured pKi of COCC(=O)N1CCC(CC[C@@H](NS(=O)(=O)Cc2ccccc2)C(=O)N[C@@H](CCC2CCNCC2)C(=O)NCc2ccc(C(=N)N)cc2)CC1 , please.
5.33

Tell me the measured pKi of CNC(=O)N1CCC(CC[C@@H](NS(=O)(=O)Cc2ccccc2)C(=O)N[C@@H](CCC2CCNCC2)C(=O)NCc2ccc(C(=N)N)cc2)CC1 , please.
5.28

Tell me the measured pKi of COC(=O)c1cccc(CS(=O)(=O)N[C@H](CCCc2ccccc2)C(=O)N[C@@H](CCC2CCNCC2)C(=O)NCc2ccc(C(=N)N)cc2)c1 , please.
5.41

Tell me the measured pKi of CC(C)C(=O)N1CCC(CC[C@@H](NS(=O)(=O)Cc2ccccc2)C(=O)N[C@@H](CCC2CCNCC2)C(=O)NCc2ccc(C(=N)N)cc2)CC1 , please.
5.19

----------
Molecular target: human activated protein C (Homo sapiens (Human))
Sequence (P04070 212-450): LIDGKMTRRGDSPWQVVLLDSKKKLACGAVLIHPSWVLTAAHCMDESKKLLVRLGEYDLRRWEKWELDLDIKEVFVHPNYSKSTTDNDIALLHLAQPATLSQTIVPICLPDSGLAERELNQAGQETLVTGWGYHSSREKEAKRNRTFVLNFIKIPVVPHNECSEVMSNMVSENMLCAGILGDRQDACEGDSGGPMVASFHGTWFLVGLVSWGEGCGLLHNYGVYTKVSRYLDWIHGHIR
Sequence (P04070 43-197 partner): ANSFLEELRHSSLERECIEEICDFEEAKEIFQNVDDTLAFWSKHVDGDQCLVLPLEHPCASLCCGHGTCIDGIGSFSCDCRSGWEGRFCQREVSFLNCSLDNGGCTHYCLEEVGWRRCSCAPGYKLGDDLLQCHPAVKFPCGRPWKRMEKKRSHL
Test: Inhibition of human activated protein C
Conditions: Pefachrome PCa substrate; read-out: h aPC Ki
Exercise: state measured Ki for each of the molecules provided.
Answer as a quantity: numeral, then unit.

Tell me the measured Ki of CNC(=O)N1CCC(CC[C@@H](NS(=O)(=O)Cc2ccccc2)C(=O)N[C@@H](CCC2CCNCC2)C(=O)NCc2ccc(C(=N)N)cc2)CC1 , please.
1100 nM

Tell me the measured Ki of N=C(N)c1ccc(CNC(=O)[C@H](CCC2CCNCC2)NC(=O)[C@@H](CCCC2CCNCC2)NS(=O)(=O)Cc2ccccc2)cc1 , please.
400 nM

Tell me the measured Ki of CC(=O)N1CCC(CC[C@@H](NS(=O)(=O)Cc2ccccc2)C(=O)N[C@@H](CCC2CCNCC2)C(=O)NCc2ccc(C(=N)N)cc2)CC1 , please.
1200 nM

Tell me the measured Ki of CCCC(=O)N1CCC(CC[C@@H](NS(=O)(=O)Cc2ccccc2)C(=O)N[C@@H](CCC2CCNCC2)C(=O)NCc2ccc(C(=N)N)cc2)CC1 , please.
1100 nM

Tell me the measured Ki of N=C(N)c1ccc(CNC(=O)[C@H](CCC2CCNCC2)NC(=O)[C@@H](CCC2CCNCC2)NS(=O)(=O)Cc2ccccc2)cc1 , please.
60 nM

Tell me the measured Ki of COC(=O)c1cccc(CS(=O)(=O)N[C@H](CCCc2ccccc2)C(=O)N[C@@H](CCC2CCNCC2)C(=O)NCc2ccc(C(=N)N)cc2)c1 , please.
570 nM

Tell me the measured Ki of CC(=O)N1CCC(CCC[C@@H](NS(=O)(=O)Cc2ccccc2)C(=O)N[C@@H](CCC2CCNCC2)C(=O)NCc2ccc(C(=N)N)cc2)CC1 , please.
1100 nM

Tell me the measured Ki of N=C(N)c1ccc(CNC(=O)[C@H](CCC2CCNCC2)NC(=O)[C@@H](CCCc2ccccc2)NS(=O)(=O)Cc2ccccc2)cc1 , please.
555 nM

Tell me the measured Ki of COC(=O)N1CCC(CCC[C@@H](NS(=O)(=O)Cc2ccccc2)C(=O)N[C@@H](CCC2CCNCC2)C(=O)NCc2ccc(C(=N)N)cc2)CC1 , please.
800 nM

Tell me the measured Ki of CCC(=O)N1CCC(CC[C@@H](NS(=O)(=O)Cc2ccccc2)C(=O)N[C@@H](CCC2CCNCC2)C(=O)NCc2ccc(C(=N)N)cc2)CC1 , please.
1200 nM
